reported_endpoint: melting point

These recorded examples may help you get a feel for the data.
CC(C)n1cnc2c(NCc3ccc(-c4ccsc4)nc3)nc(N[C@H]3CC[C@H](N)CC3)nc21 | 78 to 81 °C
Cc1cc(C)cc(-c2ccc(CNc3nc(N[C@H]4CC[C@H](N)CC4)nc4c3ncn4C(C)C)cc2)c1 | 86 to 90 °C
CC(C)n1cnc2c(NCc3ccc(-c4ccccc4)cc3)nc(N[C@H]3CC[C@H](O)CC3)nc21 | 196 to 200 °C
CCn1cnc2c(NCc3ccc(-c4ccccc4)cc3)nc(N[C@H]3CC[C@H](N)CC3)nc21 | 175 to 182 °C
CC(=O)N[C@H]1CC[C@H](Nc2nc(NCc3ccc(-c4ccccc4)cc3)c3ncn(C(C)C)c3n2)CC1 | 224 to 225 °C

Qu. For the molecule shown here, CC(=O)N[C@H]1CC[C@H](Nc2nc(NCc3ccc(-c4cc(C)cc(C)c4)cc3)c3ncn(C(C)C)c3n2)CC1 , give the reported melting point.
Ans. 207 to 210 °C

Qu. Input CC(=O)N[C@H]1CC[C@H](Nc2nc(NCc3ccc(-c4cccs4)nc3)c3ncn(C(C)C)c3n2)CC1
Ans. 206 to 208 °C
